Ref: patent US20080318993A1

# Protocol text: Example 5: plasma pharmacokinetics of EN3202 20 mg in hepatic impairment vs healthy controls
# Condition label: human, plasma, oral, 20 mg, Cmax, Subject 006 (Child-Pugh Class B)
Measurement kind: Cmax (ng/mL)

>>> observed("CN1CC[C@]23c4c5ccc(O)c4O[C@H]2C(=O)CC[C@@]3(O)[C@H]1C5.Cl [Oxymorphone]")
4.31

====

# Protocol text: Example 5: plasma pharmacokinetics of EN3202 20 mg in hepatic impairment vs healthy controls
# Condition label: human, plasma, oral, 20 mg, AUCT, Mild Impairment; mean (SD)
Measurement kind: AUC(0-t) (ng·h/mL)

>>> observed("CN1CC[C@]23c4c5ccc(O)c4O[C@H]2C(=O)CC[C@@]3(O)[C@H]1C5.Cl")
30
